Tested on: SK-MEL-5 melanoma
Experiment: NCI tumour cell line growth inhibition, 48 h; in the data active means GI50 below about 0.43 µM; inactive means the rest
Labels: t = active, f = inactive

- SMILES_STRUCTURE: "O=C(N[C@H](c1ccc(Cl)c(Cl)c1)C1CNC1)c1ccc2cnccc2c1"
  LABEL_CLASS: "f"
- SMILES_STRUCTURE: "C=C1CC[C@@H]2C(C)(C)[C@@H](O)CC[C@@]2(C)[C@@H]1COc1ccc2ccc(=O)oc2c1"
  LABEL_CLASS: "f"
- SMILES_STRUCTURE: "O=S(=O)(NCCNc1nccc(-c2c(-c3cccc(O)c3)nc3sccn23)n1)c1ccc(F)cc1"
  LABEL_CLASS: "f"
- SMILES_STRUCTURE: "COc1cc(/C=C/C(=O)C(=Cc2ccc(F)c(F)c2)C(=O)/C=C/c2ccc(O)c(OC)c2)ccc1O"
  LABEL_CLASS: "f"
- SMILES_STRUCTURE: "CCCNc1nc(N(C)O)nc(N(C)O)n1"
  LABEL_CLASS: "f"
- SMILES_STRUCTURE: "Cc1ccc(/C=C(\\C#N)n2nnc3cc(Cl)c(Cl)cc32)cc1"
  LABEL_CLASS: "f"
- SMILES_STRUCTURE: "O=C(Nc1cccc(Cl)c1)Nc1cccc(Cl)c1"
  LABEL_CLASS: "f"
- SMILES_STRUCTURE: "CCN1CCC[C@H]1c1cc(O)c2c(c1OC)C[C@H]1C[C@H]3[C@H](N)C(=O)C(C(N)=O)=C(O)[C@@]3(O)C(=O)C1=C2O"
  LABEL_CLASS: "t"
- SMILES_STRUCTURE: "Cc1ccc(-n2c3c(c4c(CN5CCCCC5)c(O)ccc42)CCc2ccccc2C3=O)cc1"
  LABEL_CLASS: "f"
